# test method notes: DUSP6 inhibitors restoring Erk phosphorylation by chemical complementation, primary imaging in DUSP6-transfected HeLa (AID 609)
# condition info: HeLa MKP-3 transfected, phospho-Erk imaging KS statistic; measured here: nuclear pErk red intensity z-score; at 10 µM; stronger effect = higher value; cells stimulated with TPA for 15 min
Binary classification by z-score, with -0.4 as an inclusive lower bound for Y; all other cases are N.

Please indicate if the recorded z-score for COc1ccccc1C1CC(c2ccc(Cl)cc2)Nc2nc(N)nn21 (stereo unspecified) meets or exceeds -0.4.
N

Please indicate if the recorded z-score for O=C(NCc1cccnc1)NC(C(F)(F)F)C(F)(F)F meets or exceeds -0.4.
N

Please indicate if the recorded z-score for N#Cc1nc(COc2ccccc2F)oc1NCCCn1ccnc1 meets or exceeds -0.4.
Y

Please indicate if the recorded z-score for CC(C)Cc1nc(N2CCN(C(=O)Cc3ccccc3)CC2)c(C#N)c2c1COC(C)(C)C2 meets or exceeds -0.4.
Y

Please indicate if the recorded z-score for CCOc1cccc(N2C(=O)CC(N(CCc3ccc(OC)c(OC)c3)C(=O)CC)C2=O)c1 (stereo unspecified) meets or exceeds -0.4.
N

Please indicate if the recorded z-score for CCCCC(=O)c1c(C)cc(C)[nH]c1=O meets or exceeds -0.4.
Y

Please indicate if the recorded z-score for CCCCn1c(=O)n(C)c(=O)c2c3c(sc21)COC(C)(C)C3 meets or exceeds -0.4.
N

Please indicate if the recorded z-score for COCc1[nH]nc2c1C(c1ccc(OC)cc1)C(C#N)=C(N)O2 (stereo unspecified) meets or exceeds -0.4.
N

Please indicate if the recorded z-score for Cc1cc(NC(CC(C)C)C(=O)O)nc(Cc2ccccc2)n1 (stereo unspecified) meets or exceeds -0.4.
Y

Please indicate if the recorded z-score for COC(=O)[C@H]1CCCN1C(=O)Nc1cccc(Oc2c(F)c(F)c(F)c(F)c2F)c1 meets or exceeds -0.4.
Y
